# Experimental Protocol: label from the status in PepcDB records
Measurement Name: protein production

Seq String: MNDIVEFLKVFIPLFIVIDPFGSLVLFTSMTYNFNEGEKMRATKDAVVYGGIILVMFALAGQFIIYFFGISIEALEMAGGVILLLMAVEMIMEGNRPKTSGSEVTTDLDIGIVPFATPLLAGPGAISLVIILMKGPLIDKIFTFVSIGIIFLMVYIFFKEASIVSKFIGNKAMKAVSRIFGLLLAGFAIQYFIDAVTALFLVH
Result: failed
--
Seq String: MGKDAKAGGKGKGKQASGSEEAPSKGKGKAGKAADGLGTCTYVKARHVLCEKQGKINEAYKKLQDGWLSNGDKVPPAEFAKIAAEYSECPSGKKGGDLGWFPRGKMAGPFQDVAFNTPVGVTSAPFKSTHGYHIILSEGRKN
Result: failed

====

# Experimental Protocol: label from the status in PepcDB records
Measurement Name: protein production

Seq String: HPEKCSECSYSCSSKAALRIHERIHCTDRPFKCNYCSFDTKQPSNLSKHMKKFHGDM
Result: not failed
//
Seq String: MSLRIGVIGLGRIGTIHAENLKMIDDAILYAISDVREDRLREMKEKLGVEKAYKDPHELIEDPNVDAVLVCSSTNTHSELVIACAKAKKHVFCEKPLSLNLADVDRMIEETKKADVILFTGFNRRFDRNFKKLKEAVENGTIGKPHVLRITSRDPAPPPLDYIRVSGGIFLDMTIHDFDMARYIMGEEVEEVFADGSVLVDEEIGKAGDVDTAVVVLRFKSGALGVIDNSRRAVYGYDQRIEVFGSKGRIFADNVRETTVVLTDEQGDRGSRYLYFFLERYRDSYLEELKTFIKNVKSGEPPAVSGEDGKMALLLGYAAKKSLEEKRSVKLEEVIGEGHHHHHH
Result: not failed

====

# Experimental Protocol: label from the status in PepcDB records
Measurement Name: protein production

Record excerpt, results attached:
Seq String: MDKKSKPDWAGESLLSNFVNLLIQTKPIYGVMKQQARQVLIKTAEKNGIPWRKNYEALQVSPAKKLLAAVTNPHVIYPDYYKVPFHAYTEGNLCWDAAFETESATYAMALRVWPQENLTWEAAHARLRGTFHDALETYAPQQVRDILDIGCSVGVSTLALHRYYQRRERYPVRTVGLDLSPYMLAVAKTRDVNSEISEWLHARAENTGLPDKSFDLVTIQFVTHELPGYVSQEIFAEAKRLLRPGGYIALVDNNPRSPVIQNLPPVLFTLMKSTEPWSDDYYTFDIEAALQAVGFAPPITVPSDPRHRTIIARKPD
protein production: failed
//
Seq String: FRPVMPSRQIVERQPRMLDFRVEYRDRNVDVVLEDTCTVGEIKQILENELQIPVSKMLLKGWKTGDVEDSTVLKSLHLPKNNSLYVLTPDL
protein production: failed
//
Seq String: MQPRFLGQLGLADVVTVANAALGFIAAAVAVFDTELAARLILLAAIADGLDGVIARFRGGTPVGPILDSLADVASFGVAPAVLVYALASGGEVTLDEPLAVAAVVVAALYVAMAVVRLGFYLLEDDGAPETVGVQTTLAATVLSVLHLAGVTDPAVFVAATAAFAYLMVASITYPELYARDALILGGLQACVVLFPTAFGRAFPRVLLVFALGYLLLAPVAYWRSTEGKRS
protein production: failed
//
Seq String: MIRQRSVIAKRAYIDEGVYIGNVVRIGEESMIHRRSRIGSGARIGGSVCIGVYCRIDGSVRIGQHADIGEWVNIDGHARIGNFARIGEWSRIGGRANIAAHVVLEKQSIIHSETCIQDASKLEHHHHHH
protein production: failed
//
Seq String: MVLLIVDGIIVAISAIAFSPDTVMYSILSLYVVSLTIDKMMVGLNSSRNLLIISQKSDQILNYITNGADRGATKIPVLGGHTGHSQNMIMTTLSTHEVPKVQEEIQKIDETAFIVIIPASTVMGRGFSLQKDYKSVPNDFINPL
protein production: failed
//
Seq String: MKKATMLTYLEEQLEKHLGDYEVGLDWDRKNHTIEVIVRLYAENNEQVAIDDVDGTLSEEEFIEFEDGLLFYNPQKSVVDDEEYLVTIPYEGKKGLRKAVLDGFIHYLKVVLDEGQSDLLDFLSDETAEVFELHWEPADFEAMIKKVAETEKEQWIAYPSY
protein production: not failed
//
Seq String: MKIPIILTLMLFSLGFIFGFISINNLSKINDKDLSNYIPNIQFNFPSILTNNLKVIFLMLAGSITFGLSTFINLIFNGFNVGVLIGSISLTNEPLKLITALILPHGIFEISAMLISAVAGFKIPYKVTLYLLDKKEKPLTEEDIKDFLKLSLISIILIVIAAFIEVYITPKIATYLLT
protein production: failed
//
Seq String: MQFFDGYHYHGTTFEQSYRCYPASFIDKPQLESGDKIIMPPSALDRLASLHIDYPMLFELRNAGIERVTHCGVLEFIAEEGMIYMPYWMMQNLLLQEGDIVRVRNVTLPKGTYVKLQPHTTDFLDISNPKAILETALRNYSCLTSGDSIMVPYNNKKYFIDIVETKPANAISIIETDCEVDFAPPLDYKEPERPTAPSAAKGPAKAEEVVDEPEPKFNPFTGSGRRLDGRPLAYEPAPASSSKGKQPVVANGNGQSSVASSSEKATRAQGKLVFGANGNRAPKEAAPKVGAAKETKKEEQEKKDEPKFQAFSGKKYSLRG
protein production: not failed
//
Seq String: MSRQPLSREDTAILVPALNEALRIREVVTDALTYCSHVIVIDDGSDDGTAECIAGMPVTLIRHPQRMGKGAALRSGFAQAQRLGMRAVMTMDGDGQHKAADFPRLLAAANRHPGCVIIGARMRKRATQPTIRRIGNDFGDWGIAWGCGFRLIDSQSGQRLYPASVFTLPNVPGEGFVFEAQLLISAARQAGARVVAVPIETRYAGTSPGTFRKSHFRLVRDLWNITSHVVKQVWAYGHVWREYRRVRANPVIVDDPDGEFATVPAVTKSNHSSLEHHHHHH
protein production: failed
//
Seq String: MTTTNEQEQSRAYILAGLFTLSLRLVVGWTYFSAFWRRLVLENKLIPDSAGYIGEKFNHFLPNSIGIRPVIEYLVSTPDMLWWAMVIFTLVEGIVGLLYMLGFFTRLMSIGVFSLATGILLGSGWLGTTCLDEWQIGILGIAAGFTIFLSGGGKYSVDHLIERKFSLKKKAAWLSWLTSGELPVSAKRFANVSVAGAIVIFTLSLYTNQEFHNGVWGPLHNKSVKPKIEISDAQIENNSLSFSVYRVEGVDVYGSFLIGISLKNADGDIVLEKKGEELADFPIGNIDNKYIARVAPGKHSLVIPLGSKATLTVDDTAIGSLPKGKYELVLTDISGITWKKEIIH
protein production: failed

Batch: protein production for all items listed.
1. MLTVHRDARDYQIIFLCSFLSLGILARDWSLSPLVIAVVLATALTVQSLFTINQQGNFSRWFSLDTWQSLWRHQGWKSALITGLGLCLLLRANHLSTLILAASLAIASKFLLQAWGKHWFNPANFGIIAALTLTGDAWVSPGQWGTTLWLGAVFLAAGGLVLGKVGRWDTSIMFLAVYAGLDLARNAWLGWPPEVSFHHLENGSLLVFALFMLTDPRSIPNARSSRLIWATAIAIFSLILQYHFYLPTALFWALFCLSPLTVLLDRQFPAPRFQWWQKKNPVPSN
2. MHEESGPSWGMRGLRKWLGTAPETRDELLKLVQDSRRFLEPDTVAMLEGVLDLPATKVREVMTPRTSIISLQEDDELLDILHVLIESAHSRFPVFSSDQPDNVVGILLAKDLLPFLTEPSAKVDVRALMRQPLFVPESARSDQVLRMLKHTQTHIAVVIDEYGTTSGLVTLEDILEEIVGEIEDEHDNVDEEAQYIVPDHAHTTANSWMVQALTPIEHFNTVLDADFSDDEVETVGGLLLQEIGLVSDLQGQVIELDDWQFTIIEADARTIHLIRAVHK

Ans:
["failed", "failed"]

====

# Experimental Protocol: label from the status in PepcDB records
Measurement Name: protein production

Sample answers from the record:
Seq String: MDSSSLEQELRWMKLVWEEAPGDKTEGPLTSPGWSTLFQAVWWGAPSLVMQLLRQGSSVEERDHTGRTPLHLAVMRGHAPLVRLLLQRGALAGAADHTGRTPLHEAAWHGHSNVAELLLRRGASAAACSQTGLTPLHGAAALGRTLLVTSFTVASDSGSDVKDVRGWTAAHWAAACGQLAVLELLSAGGNADLDGALLVSAIAGSTSSLQLLLTLGAKVDTQDSTGATALGLAAGLGHHQMLFFLCCLKKKQERKTHCWDWPLANLDPLEEQKLQELSIPRNLASVPAGGWTPSPGYIFRTVDTFVHGQLMPTEERTTECSLAVSVDLISVRDCSPSPPAGFPPVSALTIHPRADGLAQRN
protein production: failed
//
Seq String: MELLCHEVDPVRRAVRDRNLLRDDRVLQNLLTIEERYLPQCSYFKCVQKDIQPYMRRMVATWMLEVCEEQKCEEEVFPLAMNYLDRFLAGVPTPKSHLQLLGAVCMFLASKLKETSPLTAEKLCIYTDNSIKPQELLEWELVVLGKLKWNLAAVTPHDFIEHILRKLPQQREKLSLIRKHAQTFIALCATDFKFAMYPPSMIATGSVGAAICGLQQDEEVSSLTCDALTELLAKITNTDVDCLKACQEQIEAVLLNSLQQYRQDQRDGSKSEDELDQASTPTDVRDIDL
protein production: not failed
//
Seq String: EMTLVTLRSNDQFNTTIYGFSDRLRGLEGPRNVLLMNPEEIARHGLHEGQRVTLECAWSDGVDRRVSGLRVTAYDLPDSCVGAYYPETNPLVPLAARDELSGTPAYKGTPVRVRAEGSAAPL
protein production: failed
//
Seq String: MSLKKTILCFGEALIDMLAQPLVKKGMPRAFLQCAGGAPANVAVAVARLGGAVQFVGMLGSDMFGDFLFDSFAEAGVVTDGIVRTSTAKTALAFVALDAHGERSFSFYRPPAADLLFRVEHFQDASFSDALIFHACSNSMTDADIAEVTFEGMRRAQAAGAIVSFDLNFRPMLWPNGENPASRLWKGLSLADVVKLSSEELDYLANTLAADANAVIQQLWQGRAQLLLVTDAAGPVHWYTRTAGGEVPTFRVQVQDSNAAGDAFVGGMLYTFAQQFDDAAALIDFCHDPESIVSTLRFAAAVGALAVTRQGAFTAMPMLSEVLSLIQEQSEGHHHHHH
protein production: not failed
//
Seq String: MPLPPSNGMGTAALVLGIISTVVFCLWPLAIVMGVLSVVFGVIGRRRARRGEATNAGQALAGIICGAVGIVLGVAFMVIIFAAAESSSDPWSTTDDSYSTSLVVHADR
protein production: failed

Each sequence below has a reported value. Please supply its protein production.
1. MGSVQVKAHADEQGRAVVRASIEIAAPPSVVFGVILDCGRAARMSPGVKRCRVVSRAADGSEVREHTVKWGFFLPALQSRSRLSLQPDREIRFTCIGGDIRACDGFWRLEPLDGGMRTRVTYDLWATAPYAAPAGLVSSLMRRTVPQSLAALRRECEGLEHHHHHH
2. MLTNVVAVLLDGVHPFELGVVCEVFGIDRSDEGLPVYEFAVASAEGPTLRTHAGFSLRTEHGLERLETADLITLPAGNSYVSRGYPPELLDALRRAVDRGARLLSVCSGVFVLGAAGLLDGRRCAVHWHHADELARQYPKAIVEPDVLYVDEDPVITSAGTAAGIDACLHIVRKEQGPEVANAIARRMVVPPHRDGGQAQYIERPLPRSPCDTVGEVLVWMEQHLDEEVTVEQLAARAHMSPRTFARRFQQETGTTPYRWILRQRVLLAQRLLEVTDETMDAIAGRTGFGTAAALRHQFVRSLGTTPNAYRRTFRGPATGPLGLAG
3. MLIIAILCLGLLVAQGVASLILLSRLVKGARRRSPLAPVFLPEEGVRNVSVVVPTLNEAARVTPCLLGLAQQGPPLREILVVDSRSTDGTQAVVQARQKDNPRLQLLTDDPLPDNWVGRPWALNYGFRHSDPASEWILGIDADTQPQPGLVASVVQAAEEENYDILSLSPQFILQSPGEWWLQPALLMTLLYRFESAGVREQAPETVMANGQCFLCRRLVLEALGGYELAARSFCDDVTLARVAAQRGYRVGFLDGANLIRVRMYEGIGETWREWGRSLDLKDATVPARLWAEVIFLLLVQGLPILFFSLLLMLWGEDFDFLTLRLAIALNGFLLLVRWGMLLAIYPSYYRPSEKGAWSYWLSPLADPLAVTRIIISASQTPKQWRGRIYPGAS
4. MEDLSDVFDIYAICACCKVAPTSEGTKNEPFSPRTFRGLGNKGTLPWKCNSVDMKYFRSVTTYVDESKYEKLKWKRERYLRMEASQGGGDNTSGGDNNADKLQNVVVMGRSNWESIPKQYKPLPNRINVVLSKTLTKEDVKEKVFIIDSIDDLLLLLKKLKYYKCFIIGGAQVYRECLSRNLIKQIYFTRINGAYPCDVFFPEFDESQFRVTSVSEVYNSKGTTLDFLVYSK

Ans:
1. failed
2. failed
3. failed
4. not failed

# map each sequence to its protein production
1. MSKATTPGDQPKVSEMDFYQLLGVEKMASEAEIKSAYRKLALKYHPDRNPNDAHAQEEFKKVSIAYSVLSDPNKRRQYDVSGPSENQLDFEGFDVSEMGGVGRVFGALFSKLGVPIPTQIVPKVLAQARHICMGQECDVQARQLPPGETVTSSVSKQHAHFYEINIQEEHRKNGVAIICKSSSSKFKLVLFDKEGGVRMIQESGKRGKAGTQADMFFVPYNVANIQEFNAMKYHLEDKETPLAFHYLDSFEMQTATLLETRKHYIAVYGDNWISDVKYSITFLPVEPSAVEQLNEIQDTEKSISIIKKEMLDFQREFTEAKRKYDEAVAKLKVQDDTILKALAHREELYNEVLQKSQEPYNKKVSPSKSSGGLLGWFK
2. APEERDLTQEQTEKLLQFQDLTGIESMDQCRHTLEQHNWNIEAAVQDRLNEQEG

Ans:
not failed
not failed
